Biological target: CD3ε homodimer protein (human, UniProt P07766 23-126, limits assumed)
Sequence (P07766 23-126 limits assumed): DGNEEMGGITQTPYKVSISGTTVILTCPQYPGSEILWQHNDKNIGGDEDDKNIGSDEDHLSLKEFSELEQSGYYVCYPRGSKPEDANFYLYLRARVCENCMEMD
Assay: SPR, immobilized CD3ε homodimer;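 further: biacore T200 surface plasmon resonance at 25 °C, antibody variants flowed as analytes over amine-coupled CD3ε homodimer on a CM4 chip, variant binding amount divided by that of GLS3000 antibody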
Reported ratio of amounts bound (vs GLS3000) values follow for various binders
Format: numeric value only, no unit, no commentary.

1. GLS3000 G89P (antibody, name in Kabat numbering, V domains shown, one-arm format as m2) VH: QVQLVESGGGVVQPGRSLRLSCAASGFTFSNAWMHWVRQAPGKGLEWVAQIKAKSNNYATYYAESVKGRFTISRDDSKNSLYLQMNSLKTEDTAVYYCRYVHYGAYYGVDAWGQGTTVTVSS VL: DIVMTQSPLSLPVTPGEPASISCRSSQSLVHSNRNTYLHWYQQKPGQAPRLLIYKVSNRFSGVPDRFSGSGSGTDFTLKISRVEAEDVGVYYCPQGTQVPYTFGQGTKLEIK ... 0.35

Query string: Give the value of ratio of amounts bound (vs GLS3000) reported for the following: GLS3000 S26P (antibody, name in Kabat numbering, V domains shown, one-arm format as m2) VH: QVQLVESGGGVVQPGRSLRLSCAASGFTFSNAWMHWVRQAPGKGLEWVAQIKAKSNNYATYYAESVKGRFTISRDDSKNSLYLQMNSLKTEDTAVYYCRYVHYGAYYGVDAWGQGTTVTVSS VL: DIVMTQSPLSLPVTPGEPASISCRSPQSLVHSNRNTYLHWYQQKPGQAPRLLIYKVSNRFSGVPDRFSGSGSGTDFTLKISRVEAEDVGVYYCGQGTQVPYTFGQGTKLEIK
Result string: 0.78
